biological target: pooled human IgG
Readout type: Enzyme Activity Endpoint Assay (purified): Fab'2 (ng/µL)

{"Protein": "PRT-238 (protein) MEVVEVWPYGQNPNGKTEILSQTEDSESLQRLRDIEDFQAEKKMQNVVYTKWLDGVDVKDHDFRKIVDGGIAYYATPLLNGRGFYDINKDFNRDSDLCAAAVAANMFHYWLDINRDNVDRFLRQNPEKHGIIELPDGQLKLSDFLNTYESDHGYRDKSKLFDYISNNFNGPVWTDKLLDNYINGYGYNYKYGRTIEDPTKNTSKINFFKEVFNEKILTNNHSIRNQNEFSVLLSEALYTGKAIGLSYGPAGLRHSLGHIISVWGADLDADGNVVAIYVTDSDDKKLTIGDERVGLKRYKISTDDENRLRLTAYEETHNTGGQIRGLWTLDTGKYAWADYFDKTEQTGTDQAEQLEHHHHHH", "Measured number": 0}

src = patent US20250027068
